# System: SK-MEL-2 melanoma
# TEST DESCRIPTION: NCI-60 one-dose screen, 48 h
# PARTICULARS: 10 µM unless noted
This is part of a sample that, as a whole, favours compounds with a hit. Of some 83,000 tested, about 20% had one in any assay. Activity calls are given as the source filed them. How the source made its calls: active means growth percent below 10; inactive means the rest.
Output constraint: value belongs to active, inactive

{"columns": ["MOLECULE", "CLASS ASSIGNMENT"],
 "data": [
  ["COc1cc(C2=NN(C(C)=O)C(c3ccc(N4CCOCC4)cc3)C2)cc(OC)c1OC (stereo not given)", "inactive"]
]}

Prompt line: Hi, sorry to bother you, what did the test record for O=C1[C@H]2Cc3c([nH]c4ccccc34)[C@@H](c3ccc(Cl)cc3)N2C(=O)CN1C1CCN(Cc2c(Cl)cccc2Cl)CC1 ?
Response line: inactive

Prompt line: Hi, sorry to bother you, what did the test record for O=C1c2c(c3c4cc(Br)ccc4[nH]c3c3ccc4ccccc4c23)C(=O)N1CCN1CCNCC1 ?
Response line: inactive

Prompt line: Hi, sorry to bother you, what did the test record for CCn1c2ccc(/C=N/OCCCN(C)C)cc2c2cc(/C=N/OCCCN(C)C)ccc21 ?
Response line: inactive

Prompt line: Hi, sorry to bother you, what did the test record for NC(=O)C(=Cc1ccc(Cl)cc1)C(N)=O ?
Response line: inactive

Prompt line: Hi, sorry to bother you, what did the test record for C/C=C/[C@@H]1C=C[C@@H]2C[C@H](C)CC[C@H]2[C@]1(C)/C(O)=C1/C(=O)[C@H](CO)N(C)C1=O ?
Response line: inactive

Prompt line: Hi, sorry to bother you, what did the test record for Cc1cc(O)c(=O)cc2c1C[C@H]1CC(C)(C)/C=C/C[C@]3(C)Oc4cc(=O)c(O)cc(C)c4C[C@H]3C[C@H](O)[C@@]1(C)O2 ?
Response line: active

Prompt line: Hi, sorry to bother you, what did the test record for CC1(C)CC[C@]2(C(=O)N3CCCN(CC#N)CC3)CC[C@]3(C)C(=CC[C@@H]4[C@@]5(C)CC[C@H](O)C(C)(C)[C@@H]5CC[C@]43C)[C@H]2C1 ?
Response line: inactive

Prompt line: Hi, sorry to bother you, what did the test record for O=C(NCCCNc1cc(-c2cn(-c3ccccc3)nc2-c2cccc(O)c2)ccn1)Nc1ccc(F)cc1 ?
Response line: active

###

# Test system: BT-549 breast
# TEST DESCRIPTION: NCI-60 one-dose screen, 48 h (100 = growth as untreated, 0 = no growth, -100 = all killed)
# PARTICULARS: 10 µM unless noted
About 83,000 compounds went through this panel and 20% of them were active in at least one assay; those are over-represented in the sample as a whole.
Record form. Attribute: growth. Fill in for each entry.
Answers are plain numbers, in %.

Below are worked cases with known answers.
{"columns": ["COMPOUND", "SYSTEM", "MEASUREMENT LABEL", "ASSAY RESULT"],
 "data": [
  ["CS(=O)(=O)c1nccc(-c2c(-c3ccc(F)c(OCc4ccccc4)c3)nc3sccn23)n1", "BT-549 breast", "growth", -0.34],
  ["O=C1Nc2cc(OC(F)(F)F)ccc2Oc2ccc(-c3ccnc(N4CCNCC4)c3)cc21", "BT-549 breast", "growth", -4.26],
  ["Oc1ccc(CSc2nnc(-c3cnccn3)n2-c2ccccc2)c2cccnc12", "BT-549 breast", "growth", 41.8]
]}

Okay, here is my list. What is growth for each of these?
1. Cn1c2ccccc2c2c3c(c4c5ccc(Br)cc5oc4c21)C(=O)N(O)C3=O
2. CCN(CC)CCN1C(=O)c2c(c3c4cccnc4[nH]c3c3ccc4ccccc4c23)C1=O
3. COc1cc2c3c(n(CCCN4CCCC4)c(=O)c2cc1OC)-c1cc2c(cc1C3=O)OCO2
4. CCn1c2ccc(/C=N/OCCCN(C)C)cc2c2cc(/C=N/OCCCN(C)C)ccc21
5. O=C(NNc1nc2cc(F)cc(F)c2n2cccc12)c1ccncn1
6. COc1ccc([C@@H]2[C@@H](O)C(=O)N2c2cc(OC)c(OC)c(OC)c2)cc1
7. COc1ccc(C(=O)n2cc(C=O)c3ccccc32)cc1
8. NC(=O)N1N=C(c2cc3ccccc3oc2=O)CC1c1cn(-c2ccccc2)nc1-c1ccc(Cl)cc1 (centres undefined)

Response line:
[64.9, 85.8, 82.3, 60.9, 12.2, -13.4, 100, 68.7]

Okay, here is my list. What is growth for each of these?
1. O=C1c2c(c3c4cc(Br)ccc4[nH]c3c3ccc4ccccc4c23)C(=O)N1CCN1CCNCC1
2. O=c1cc(-c2ccccc2)nc2sc(-c3c[nH]c4ccc(Br)cc34)nn12

Response line:
87.6
108

Okay, here is my list. What is growth for each of these?
1. COc1cc(O)c2c(c1)[C@H]1O[C@@H]1C[C@H](O)[C@H](O)C(=O)/C=C\C[C@H](C)OC2=O
2. O=C1c2c(c3c4cccnc4[nH]c3c3ccc4ccccc4c23)C(=O)N1CCN1CCCCC1
3. Cc1ccc(/C=C/c2nn3c(-c4ccco4)nnc3s2)cc1
4. COc1ccc(CCN2C(=O)/C(=C/c3nc(CO)cs3)SC2=S)cc1

Response line:
1. 2.6
2. 84.4
3. 99.2
4. 97.1

Okay, here is my list. What is growth for each of these?
1. O=C(O)CNS(=O)(=O)c1ccc(Oc2ccc(S(=O)(=O)NCC(=O)O)cc2)cc1
2. COc1ccc(NC(=O)[C@H](C)NC(=O)OC(C)(C)C)cc1C(=O)Nc1cccc(-c2cc(=O)c3c(OC)c(OC)c(OC)cc3o2)c1
3. Cc1ccccc1NC1CC(=O)N(c2ccc(Cl)cc2Cl)C1=O (centres undefined)

Response line:
1: 115; 2: -85; 3: 123

Okay, here is my list. What is growth for each of these?
1. O=C(/C=C1\C=CN(CCCCO)c2ccccc21)n1ccc2ccccc21
2. O=C(CSc1ccc(-c2nc3ccccc3[nH]2)cn1)N1CCN(c2ccccc2F)CC1
3. Cc1ccc(C2CC(c3ccc(Nc4nc(NCCO)nc(Nc5ccc(Cl)cc5)n4)cc3)=Nc3c(N)nc(N)nc3N2)cc1 (centres undefined)
4. CCn1c2ccc(/C=N/NS(=O)(=O)CCN(C)C)cc2c2cc(/C=N/NS(=O)(=O)CCN(C)C)ccc21
5. O=S(=O)(Nc1ccc(-n2cnc3cc(-c4ccc(O)cc4)ccc32)cc1)C1CC1
6. COc1ccc(S(=O)(=O)n2cc(C=O)c3ccccc32)c(OC)c1
7. NC(=S)N/N=C(/C=C/c1cn(-c2ccccc2)nc1-c1ccc(Cl)cc1)c1cc2ccccc2oc1=O
8. COc1ccc(-c2ccc3c4c(cccc24)C(=O)N(N2C(=O)c4cccc5cccc(c45)C2=O)C3=O)cc1

Response line:
1. 112
2. 27.8
3. 80.7
4. 99.1
5. 91.9
6. 64.2
7. 87.1
8. 106

Okay, here is my list. What is growth for each of these?
1. Clc1ccc(-c2csc(N/N=C/c3nc4ccccc4n3C3CC3)n2)cc1
2. COc1cc2c3c(n(CCCNC4CCC4)c(=O)c2cc1OC)-c1cc2c(cc1C3=O)OCO2
3. O=C(COc1ccc(C2SCC(=O)N2c2ccc(F)cc2)cc1)c1ccccc1 (centres undefined)
4. CNC(=O)c1cc(Oc2ccc3nc(NC(=O)c4ccc(CN5CCCN(C)CC5)c(C(F)(F)F)c4)sc3c2)ccn1
5. O=C(O)c1ccc(-n2cc(CNc3ccc(Cl)cc3)c(-c3ccc(F)cc3)n2)cc1
6. CN(C)c1ncc(/C=C2\SC(=S)N(Cc3ccccc3Cl)C2=O)s1
7. COc1cc(C2=NN(C(C)=O)C(c3ccc(N4CCOCC4)cc3)C2)cc(OC)c1OC (centres undefined)
8. COc1ccc2c(C3=C(c4c[nH]c5ccccc45)C(=O)N(O)C3=O)coc2c1

Response line:
103
76
93.4
83.2
101
102
92.2
118

Okay, here is my list. What is growth for each of these?
1. O=C(C[n+]1ccnc2ccccc21)c1ccc(O)c(O)c1
2. Cn1cc(-c2nnc(N)nc2-c2cn(C)c3ccc(F)cc23)c2cc(F)ccc21
3. Oc1ccc(CSc2nnc(-c3ccccc3)o2)c2cccnc12

Response line:
1. 51.7
2. 99.8
3. 29.4

###

# System: OVCAR-4 ovarian
# TEST DESCRIPTION: NCI-60 one-dose screen, 48 h (100 = growth as untreated, 0 = no growth, -100 = all killed)
# PARTICULARS: 10 µM unless noted
The panel holds about 83,000 compounds, 20% with a hit somewhere; the sample as a whole holds those more often.
MEASUREMENT LABEL: growth (%)
One number for each entry, in %.

Below are worked cases with known answers.
{"columns": ["MOLECULE", "UNIT ABBREV", "growth"],
 "data": [
  ["C#C[C@]1(O)CC[C@H]2[C@@H]3CC=C4c5sc(C6CCOCC6)nc5CC[C@]4(C)[C@H]3CC[C@@]21C", "%", 89.7],
  ["COc1ccc(/C=N\\NC(=O)c2ccc3nc(-c4ccc(Br)cc4)[nH]c3c2)cc1", "%", 12.5],
  ["O=C1Nc2ccc(Cl)cc2/C1=C/c1ccc(OCc2ccc(F)cc2)cc1", "%", 97.5],
  ["COc1ccc(OC)c([C@H]2c3[nH]c4ccccc4c3C[C@H]3C(=O)N(CCCCCCC(=O)NO)CC(=O)N23)c1", "%", 80],
  ["COc1cc(O)c2c(c1)/C=C/C[C@H](O)[C@H](O)C(=O)/C=C\\C[C@H](C)OC2=O", "%", 18.9]
]}

Okay, here is my list. What is growth for each of these?
1. Oc1ccc(CSc2nnc(-c3ccc(Oc4ccccc4)cc3)n2-c2ccccc2)c2cccnc12
2. O=C1Nc2cc(OC(F)(F)F)ccc2Oc2ccc(-c3ccnc(N4CCNCC4)c3)cc21
3. CC(=O)c1sc(Nc2cccc(Nc3nc(C)c(C)s3)c2)nc1C
4. O=c1oc2ccc(-c3ccc(F)cc3F)cc2c(=O)n1-c1cccc(C(F)(F)F)c1
5. CCCCSc1nnc(-c2ccc(-c3ccc(Cl)cc3)nc2C)o1
6. Oc1ccc(CSc2nnc(-c3ccc(Oc4ccccc4)cc3)o2)c2cccnc12
7. Cc1cc(=O)n2nc(-c3cn(C)c4ccc(Cl)cc34)sc2n1
8. COc1ccc(NS(=O)(=O)c2ccc(-c3cnc(C4CC4)o3)cc2)cc1Cl

Response line:
[17.9, 48, 51.5, 13.4, 102, -36.5, 93.7, 52.5]

Okay, here is my list. What is growth for each of these?
1. Oc1ccc(CSc2nnc(-c3ccncc3)o2)c2cccnc12
2. C/C(=C(/c1ccc(O)cc1)c1ccc(OCCN2CCCC2)cc1)c1ccc(Cl)cc1
3. COc1cc2cc(Oc3ccc(NC(=O)Nc4cccc(C(F)(F)F)c4)cc3)c(C)nc2cc1OCCN(C)C
4. CCOC(=O)c1c(NC(=O)c2ccc(F)cc2F)sc2c1CCC(=O)C2
5. CN(c1ccc(F)cc1)S(=O)(=O)c1ccc(-c2cnc(C3CC3)o2)cc1

Response line:
[19.7, 65.4, 92.9, 102, 70.4]

Okay, here is my list. What is growth for each of these?
1. CCCCCCCCCC[C@@H](C)[C@@H]1CC(=O)N[C@H]([C@@H](C)O)C(=O)N[C@@H](C)C(=O)N[C@H](C)C(=O)N[C@@H](CCC(N)=O)C(=O)N[C@H](Cc2ccc(O)cc2)C(=O)N[C@@H](C(C)CC)C(=O)O1 (stereo not given in full)
2. CCOC(=O)/C(F)=C/C1CC1C1CCCCC1 (stereo not given)

Response line:
1: 30.9; 2: 107
